These measurements were taken from patent US6489098B1.

Measured Average fold reduction in susceptibility, listed per entry for reference.
Tested on: HIV-1 RT mutant resistance test vector 41 + 62 + 69 + 75S + 210 + 215
Test Protocol: Phenotypic susceptibility assay, site directed RTV 41 + 62 + 69 + 75S + 210 + 215
Format: cell-based
Conditions Used: RTV with 41 + 62 + 69 + 75S + 210 + 215; 1 replicate
Method: Resistance tests were carried out with resistance test vectors using two host cell types. Resistance test vector viral particles were produced by a first host cell (the resistance test vector host cell) that was prepared by transfecting a packaging host cell with the resistance test vector and the packaging expression vector. The resistance test vector viral particles were then used to infect a second host cell (the target host cell) in which the expression of the indicator gene is measured. […]
# number only, unit fold dropped from output

# count of solved cases: 3
[[record]]
smiles_structure = "Cc1cn([C@H]2C=C[C@@H](CO)O2)c(=O)[nH]c1=O"
property = "Average fold reduction in susceptibility"
recorded_result = 14.13

[[record]]
smiles_structure = "Nc1nc(NC2CC2)c2ncn([C@H]3C=C[C@@H](CO)C3)c2n1"
property = "Average fold reduction in susceptibility"
recorded_result = 14.21

[[record]]
smiles_structure = "Nc1ccn([C@@H]2CS[C@H](CO)O2)c(=O)n1"
property = "Average fold reduction in susceptibility"
recorded_result = 31.67


Query: GET Average fold reduction in susceptibility | system: HIV-1 RT mutant resistance test vector 41 + 62 + 69 + 75S + 210 + 215 | item: Nc1ccn([C@H]2CC[C@@H](CO)O2)c(=O)n1
Reply: 2.58

Query: GET Average fold reduction in susceptibility | system: HIV-1 RT mutant resistance test vector 41 + 62 + 69 + 75S + 210 + 215 | item: O=c1[nH]cnc2c1ncn2[C@H]1CC[C@@H](CO)O1
Reply: 5.12
